System: normal primary NK cells, pool 1 (3 donors) (IL-2 2.5 ng/mL)
experimentSummary: relative IC50 (inflection point of fitted viability curve, relative to fitted max inhibition); higher = less sensitive
conditionContext: 72 h
Mark false (0) for relative IC50 values under 700 nM, and true (1) for everything at or above.

>  <compound>
CC(C)C[C@H](NC(=O)[C@H](CCc1ccccc1)NC(=O)CN1CCOCC1)C(=O)N[C@@H](Cc1ccccc1)C(=O)N[C@@H](CC(C)C)C(=O)[C@@]1(C)CO1 [Carfilzomib]

>  <targetOfAssay>
normal primary NK cells, pool 1 (3 donors) (IL-2 2.5 ng/mL)

>  <assignedCategory>
false (0)

$$$$
>  <compound>
Oc1c2ccccc2c2c3c(cccc13)N=N2

>  <targetOfAssay>
normal primary NK cells, pool 1 (3 donors) (IL-2 2.5 ng/mL)

>  <assignedCategory>
true (1)

$$$$
>  <compound>
CN[C@@H]1C[C@H]2O[C@@](C)([C@@H]1OC)n1c3ccccc3c3c4c(c5c6ccccc6n2c5c31)C(=O)N[C@H]4O [UCN-01]

>  <targetOfAssay>
normal primary NK cells, pool 1 (3 donors) (IL-2 2.5 ng/mL)

>  <assignedCategory>
false (0)

$$$$
>  <compound>
O=C1c2c(O)ccc(O)c2C(=O)c2c(NCCNCCO)ccc(NCCNCCO)c21 [Mitoxantrone]

>  <targetOfAssay>
normal primary NK cells, pool 1 (3 donors) (IL-2 2.5 ng/mL)

>  <assignedCategory>
false (0)

$$$$
>  <compound>
NC(=O)Nc1sc(-c2ccc(F)cc2)cc1C(N)=O [TPCA-1]

>  <targetOfAssay>
normal primary NK cells, pool 1 (3 donors) (IL-2 2.5 ng/mL)

>  <assignedCategory>
true (1)

$$$$
>  <compound>
CN(C)Cc1ccc(S(=O)(=O)n2ccc(/C=C/C(=O)NO)c2)cc1 [Resminostat]

>  <targetOfAssay>
normal primary NK cells, pool 1 (3 donors) (IL-2 2.5 ng/mL)

>  <assignedCategory>
false (0)

$$$$

* * *

Test system: normal primary NK cells, pool 2 (3 donors) (IL-2 2.5 ng/mL)
experimentSummary: percent inhibition of viability; higher = more inhibition
conditionContext: 72 h; 1 nM

>  <compound>
CNc1nc(-c2ccc3c(N)n[nH]c3c2)cc(N2C[C@@H](C(=O)NC3CCCCC3)CC[C@H]2C)n1 (max concentration tested 10000 nM)

>  <targetOfAssay>
normal primary NK cells, pool 2 (3 donors) (IL-2 2.5 ng/mL)

>  <percent inhibition of viability / %>
-9.37

$$$$
>  <compound>
CC(C)C[C@H](NC(=O)[C@@H](COC(C)(C)C)NC(=O)[C@H](Cc1ccc(O)cc1)NC(=O)[C@H](CO)NC(=O)[C@H](Cc1c[nH]c2ccccc12)NC(=O)[C@H](Cc1cnc[nH]1)NC(=O)[C@@H]1CCC(=O)N1)C(=O)N[C@@H](CCCNC(=N)N)C(=O)N1CCC[C@H]1C(=O)NNC(N)=O [Goserelin] (max concentration tested 10000 nM)

>  <targetOfAssay>
normal primary NK cells, pool 2 (3 donors) (IL-2 2.5 ng/mL)

>  <percent inhibition of viability / %>
-6.03

$$$$
>  <compound>
Cc1c(C(=O)Nc2ccc(N3C[C@@H](C)O[C@@H](C)C3)nc2)cccc1-c1ccc(OC(F)(F)F)cc1 [Sonidegib] (max concentration tested 10000 nM)

>  <targetOfAssay>
normal primary NK cells, pool 2 (3 donors) (IL-2 2.5 ng/mL)

>  <percent inhibition of viability / %>
-5.58

$$$$
>  <compound>
COc1ccc(-c2nc(N3CCOCC3)c3sc(CN(C)c4ncc(C(=O)NO)cn4)cc3n2)cn1 [CUDC-907] (max concentration tested 10000 nM)

>  <targetOfAssay>
normal primary NK cells, pool 2 (3 donors) (IL-2 2.5 ng/mL)

>  <percent inhibition of viability / %>
1.42

$$$$
>  <compound>
CS(=O)(=O)c1ccc(C2=C(c3ccccc3)C(=O)OC2)cc1 [Rofecoxib] (max concentration tested 10000 nM)

>  <targetOfAssay>
normal primary NK cells, pool 2 (3 donors) (IL-2 2.5 ng/mL)

>  <percent inhibition of viability / %>
-7.81

$$$$

* * *

Tested on: normal primary NK cells, pool 1 (3 donors) (IL-2 2.5 ng/mL)
experimentSummary: percent inhibition of viability; higher = more inhibition
conditionContext: 72 h; 1 nM
Returns: string. Value is true (1) if measured percent inhibition of viability is below -10%, and false (0) if it is greater than or equal to it.

>  <compound>
COc1cc(N2CCN(C)CC2)ccc1Nc1nccc(-c2cn(C)c3cnccc23)n1 [AZ191] (max concentration tested 10000 nM)

>  <assignedCategory>
false (0)

$$$$
>  <compound>
C[C@]12C=CC(=O)C=C1CC[C@@H]1[C@@H]2C(=O)C[C@@]2(C)[C@H]1CC[C@]2(O)C(=O)CO [Prednisone] (max concentration tested 10000 nM)

>  <assignedCategory>
false (0)

$$$$
>  <compound>
C/C(=C\c1csc(C)n1)[C@@H]1C[C@@H]2O[C@]2(C)CCC[C@H](C)[C@H](O)[C@@H](C)C(=O)C(C)(C)[C@@H](O)CC(=O)N1 [Ixabepilone] (max concentration tested 1000 nM)

>  <assignedCategory>
true (1)

$$$$
>  <compound>
C[C@@H]1CN(Cc2ccc(F)cc2)[C@@H](C)CN1C(=O)c1cc2c(C(=O)C(=O)N(C)C)cn(C)c2cc1Cl [Talmapimod] (max concentration tested 10000 nM)

>  <assignedCategory>
true (1)

$$$$
>  <compound>
COc1ccc(-c2cc3c(C)nc(N)nc3n([C@H]3CC[C@H](OCCO)CC3)c2=O)cn1 (max concentration tested 10000 nM)

>  <assignedCategory>
false (0)

$$$$
>  <compound>
CCNC(=O)c1noc(-c2cc(C(C)C)c(O)cc2O)c1-c1ccc(CN2CCOCC2)cc1 [Luminespib] (max concentration tested 1000 nM)

>  <assignedCategory>
false (0)

$$$$

* * *

Measured percent inhibition of viability of individual entries
Test system: KHYG-1 (IL-2 2.5 ng/mL)
experimentSummary: percent inhibition of viability; higher = more inhibition
conditionContext: 72 h; 1 nM
readout: percent inhibition of viability

>  <compound>
CN(C)C[C@@H]1CCn2cc(c3ccccc32)C2=C(C(=O)NC2=O)c2cn(c3ccccc23)CCO1 [Ruboxistaurin] (max concentration tested 10000 nM)

>  <targetOfAssay>
KHYG-1 (IL-2 2.5 ng/mL)

>  <reported>
1.18%

$$$$
>  <compound>
Cc1ccc(C(=O)N(CCCN)[C@@H](c2oc3cc(Cl)ccc3c(=O)c2Cc2ccccc2)C(C)C)cc1 (max concentration tested 100 nM)

>  <targetOfAssay>
KHYG-1 (IL-2 2.5 ng/mL)

>  <reported>
3.33%

$$$$
>  <compound>
CN1CCN(CCOc2cc(OC3CCOCC3)c3c(Nc4c(Cl)ccc5c4OCO5)ncnc3c2)CC1 [Saracatinib] (max concentration tested 10000 nM)

>  <targetOfAssay>
KHYG-1 (IL-2 2.5 ng/mL)

>  <reported>
-5.13%

$$$$
>  <compound>
CC(C)(C)Cn1c(N)nc2ccc(-c3[nH]c(C(C)(C)C)nc3-c3ccc(F)cc3)nc21 [Ralimetinib] (max concentration tested 10000 nM)

>  <targetOfAssay>
KHYG-1 (IL-2 2.5 ng/mL)

>  <reported>
-1.88%

$$$$
>  <compound>
CNC(=O)c1nn(C)c2c1C(C)(C)Cc1cnc(Nc3ccc(N4CCN(C)CC4)cc3)nc1-2 [Milciclib] (max concentration tested 10000 nM)

>  <targetOfAssay>
KHYG-1 (IL-2 2.5 ng/mL)

>  <reported>
0.72%

$$$$
>  <compound>
COc1cc2ncnc(Oc3cccc(NC(=O)Nc4cc(C(C)(C)C(F)(F)F)on4)c3)c2cc1OC (max concentration tested 10000 nM)

>  <targetOfAssay>
KHYG-1 (IL-2 2.5 ng/mL)

>  <reported>
-4.24%

$$$$

* * *

System: normal primary NK cells, pool 2 (3 donors) (IL-2 2.5 ng/mL)
experimentSummary: percent inhibition of viability; higher = more inhibition
conditionContext: 72 h; 1000 nM
Measured percent inhibition of viability of individual entries

>  <molecule>
CC(C)CC(=O)Nc1n[nH]c2c1CN(C(=O)C1CCN(C)CC1)C2(C)C (max concentration tested 10000 nM)

>  <targetOfAssay>
normal primary NK cells, pool 2 (3 donors) (IL-2 2.5 ng/mL)

>  <percent inhibition of viability / %>
14.3

$$$$
>  <molecule>
CON(C)C(=O)N1N=C(c2cc(F)ccc2F)S[C@@]1(CCCN)c1ccccc1 [Filanesib] (max concentration tested 1000 nM)

>  <targetOfAssay>
normal primary NK cells, pool 2 (3 donors) (IL-2 2.5 ng/mL)

>  <percent inhibition of viability / %>
0.91

$$$$
>  <molecule>
CC[C@H](CO)Nc1nc(NCc2ccccc2)c2ncn(C(C)C)c2n1 [Seliciclib] (max concentration tested 10000 nM)

>  <targetOfAssay>
normal primary NK cells, pool 2 (3 donors) (IL-2 2.5 ng/mL)

>  <percent inhibition of viability / %>
1.18

$$$$
>  <molecule>
CN(C)C[C@@H]1CCn2cc(c3ccccc32)C2=C(C(=O)NC2=O)c2cn(c3ccccc23)CCO1 [Ruboxistaurin] (max concentration tested 10000 nM)

>  <targetOfAssay>
normal primary NK cells, pool 2 (3 donors) (IL-2 2.5 ng/mL)

>  <percent inhibition of viability / %>
13.1

$$$$
